Tested on: A549 Human lung carcinoma cells
test_details: A549 Human Lung Cell Assay (transfected cells, dexamethasone challenge, luciferase read-out)
Assay type: cell-based
test_parameters: Homo sapiens, A549, A549 cells, test compound 10 min then dexamethasone challenge, 24 h, Luc-assay; read-out: A 549 IC50
Listed here: items and their measured IC50.
endpoint_label: IC50

>>> reported_value("C#C[C@]1(O)CCC2C3CCC4=CC(=O)CCC4=C3[C@H](c3ccc(OC)cc3)OC[C@@]21C (stereo partly shown)")
"367 nM"
>>> reported_value("C=C(C)[C@]1(O)CCC2C3CCC4=CC(=O)CCC4=C3[C@@H](c3ccc(N(C)C)cc3)OC[C@@]21C (stereo partly shown)")
"50.1 nM"
>>> reported_value("C=CC[C@]1(O)CCC2C3CCC4=CC(=O)CCC4=C3[C@@H](c3ccc(OC)cc3)OC[C@@]21C (stereo partly shown)")
"114 nM"
>>> reported_value("C=C(CCO)[C@]1(O)CCC2C3CCC4=CC(=O)CCC4=C3[C@@H](c3ccc(OC)cc3)OC[C@@]21C (stereo partly shown)")
"771 nM"
>>> reported_value("C=CC[C@]1(O)CCC2C3CCC4=CC(=O)CCC4=C3[C@H](c3ccc(OC)cc3)OC[C@@]21C (stereo partly shown)")
"> 3000 nM"
>>> reported_value("COc1ccc([C@H]2OC[C@@]3(C)C(CC[C@@]3(O)C#CC(F)(F)F)C3CCC4=CC(=O)CCC4=C32)cc1 (stereo partly shown)")
"> 3000 nM"
>>> reported_value("COc1ccc([C@@H]2OC[C@]3(C)C(=O)CCC3C3CCC4=CC(=O)CCC4=C32)cc1 (stereo partly shown)")
"> 3000 nM"

These measurements were taken from patent US7390831B2.
